// reported BI per item
# Test system: MAGI3-3
# Test Description: Holdup assay, MAGI3-3
# Assay type: binding, human
*1 amine or outer side, *2 acyl side, *3 side chain or, on linkers, in order; H or OH if unused. Where a SMILES comes first, the peptide text is derived from it. The star is where a group is joined. X1 = O=C(CCCC[C@@H]1SC[C@@H]2NC(=O)N[C@@H]21)NCCCOCCOCCOCCCN*; Suc = O=C(CCC(=O)[*:2])[*:1]
Observable: BI

| Molecule | Recorded Measurement |
| --- | --- |
| CC[C@H](C)[C@H](NC(=O)[C@H](CCC(N)=O)NC(=O)[C@@H](NC(=O)[C@H](Cc1c[nH]cn1)NC(=O)[C@H](CCC(N)=O)NC(=O)[C@H](CC(=O)O)NC(=O)[C@H](CCC(=O)O)NC(=O)[C@H](CC(=O)O)NC(=O)CCC(=O)NCCCOCCOCCOCCCNC(=O)CCCC[C@@H]1SC[C@@H]2NC(=O)N[C@@H]21)[C@@H](C)O)C(=O)N[C@H](C(=O)N[C@@H](CCCNC(=N)N)C(=O)N[C@H](C(=O)O)C(C)C)[C@@H](C)O [PTEN_KR] ({X1-Suc}-DEDQHTQITRV-OH) | -0.043 |
| CC[C@H](C)[C@H](NC(=O)[C@H](CCC(N)=O)NC(=O)[C@@H](NC(=O)[C@H](Cc1c[nH]cn1)NC(=O)[C@H](CCC(N)=O)NC(=O)[C@H](CC(=O)O)NC(=O)[C@H](CCC(=O)O)NC(=O)[C@H](CC(=O)O)NC(=O)CCC(=O)NCCCOCCOCCOCCCNC(=O)CCCC[C@@H]1SC[C@@H]2NC(=O)N[C@@H]21)[C@@H](C)O)C(=O)N[C@H](C(=O)N[C@@H](CCCCN)C(=O)N[C@H](C(=O)O)C(C)C)[C@@H](C)O [PTEN_11] | -0.099 |
| CC[C@H](C)[C@H](NC(=O)[C@H](CCC(N)=O)NC(=O)[C@@H](NC(=O)[C@H](Cc1c[nH]cn1)NC(=O)[C@H](CCC(N)=O)NC(=O)[C@H](CC(=O)O)NC(=O)[C@H](CCC(=O)O)NC(=O)[C@H](CC(=O)O)NC(=O)CCC(=O)NCCCOCCOCCOCCCNC(=O)CCCC[C@@H]1SC[C@@H]2NC(=O)N[C@@H]21)[C@@H](C)O)C(=O)N[C@H](C(=O)N[C@@H](CCCCNC(C)=O)C(=O)N[C@H](C(=O)O)C(C)C)[C@@H](C)O [PTEN_Ac] | -0.079 |
| CC[C@H](C)[C@H](NC(=O)[C@H](CCC(N)=O)NC(=O)[C@@H](NC(=O)[C@H](Cc1c[nH]cn1)NC(=O)[C@H](CCC(N)=O)NC(=O)[C@H](CC(=O)O)NC(=O)[C@H](CCC(=O)O)NC(=O)[C@H](CC(=O)O)NC(=O)[C@H](Cc1ccccc1)NC(=O)[C@@H]1CCCN1C(=O)CCC(=O)NCCCOCCOCCOCCCNC(=O)CCCC[C@@H]1SC[C@@H]2NC(=O)N[C@@H]21)[C@@H](C)O)C(=O)N[C@H](C(=O)N[C@@H](CCCCN)C(=O)N[C@H](C(=O)O)C(C)C)[C@@H](C)O [PTEN_13] ({X1-Suc}-PFDEDQHTQITKV-OH) | -0.03 |
